- Experimental system: CBP (Homo sapiens, UniProt Q92793)
- Construct: host or cells: A549 CBP HiBit cells
- Sequence (Q92793 whole entry): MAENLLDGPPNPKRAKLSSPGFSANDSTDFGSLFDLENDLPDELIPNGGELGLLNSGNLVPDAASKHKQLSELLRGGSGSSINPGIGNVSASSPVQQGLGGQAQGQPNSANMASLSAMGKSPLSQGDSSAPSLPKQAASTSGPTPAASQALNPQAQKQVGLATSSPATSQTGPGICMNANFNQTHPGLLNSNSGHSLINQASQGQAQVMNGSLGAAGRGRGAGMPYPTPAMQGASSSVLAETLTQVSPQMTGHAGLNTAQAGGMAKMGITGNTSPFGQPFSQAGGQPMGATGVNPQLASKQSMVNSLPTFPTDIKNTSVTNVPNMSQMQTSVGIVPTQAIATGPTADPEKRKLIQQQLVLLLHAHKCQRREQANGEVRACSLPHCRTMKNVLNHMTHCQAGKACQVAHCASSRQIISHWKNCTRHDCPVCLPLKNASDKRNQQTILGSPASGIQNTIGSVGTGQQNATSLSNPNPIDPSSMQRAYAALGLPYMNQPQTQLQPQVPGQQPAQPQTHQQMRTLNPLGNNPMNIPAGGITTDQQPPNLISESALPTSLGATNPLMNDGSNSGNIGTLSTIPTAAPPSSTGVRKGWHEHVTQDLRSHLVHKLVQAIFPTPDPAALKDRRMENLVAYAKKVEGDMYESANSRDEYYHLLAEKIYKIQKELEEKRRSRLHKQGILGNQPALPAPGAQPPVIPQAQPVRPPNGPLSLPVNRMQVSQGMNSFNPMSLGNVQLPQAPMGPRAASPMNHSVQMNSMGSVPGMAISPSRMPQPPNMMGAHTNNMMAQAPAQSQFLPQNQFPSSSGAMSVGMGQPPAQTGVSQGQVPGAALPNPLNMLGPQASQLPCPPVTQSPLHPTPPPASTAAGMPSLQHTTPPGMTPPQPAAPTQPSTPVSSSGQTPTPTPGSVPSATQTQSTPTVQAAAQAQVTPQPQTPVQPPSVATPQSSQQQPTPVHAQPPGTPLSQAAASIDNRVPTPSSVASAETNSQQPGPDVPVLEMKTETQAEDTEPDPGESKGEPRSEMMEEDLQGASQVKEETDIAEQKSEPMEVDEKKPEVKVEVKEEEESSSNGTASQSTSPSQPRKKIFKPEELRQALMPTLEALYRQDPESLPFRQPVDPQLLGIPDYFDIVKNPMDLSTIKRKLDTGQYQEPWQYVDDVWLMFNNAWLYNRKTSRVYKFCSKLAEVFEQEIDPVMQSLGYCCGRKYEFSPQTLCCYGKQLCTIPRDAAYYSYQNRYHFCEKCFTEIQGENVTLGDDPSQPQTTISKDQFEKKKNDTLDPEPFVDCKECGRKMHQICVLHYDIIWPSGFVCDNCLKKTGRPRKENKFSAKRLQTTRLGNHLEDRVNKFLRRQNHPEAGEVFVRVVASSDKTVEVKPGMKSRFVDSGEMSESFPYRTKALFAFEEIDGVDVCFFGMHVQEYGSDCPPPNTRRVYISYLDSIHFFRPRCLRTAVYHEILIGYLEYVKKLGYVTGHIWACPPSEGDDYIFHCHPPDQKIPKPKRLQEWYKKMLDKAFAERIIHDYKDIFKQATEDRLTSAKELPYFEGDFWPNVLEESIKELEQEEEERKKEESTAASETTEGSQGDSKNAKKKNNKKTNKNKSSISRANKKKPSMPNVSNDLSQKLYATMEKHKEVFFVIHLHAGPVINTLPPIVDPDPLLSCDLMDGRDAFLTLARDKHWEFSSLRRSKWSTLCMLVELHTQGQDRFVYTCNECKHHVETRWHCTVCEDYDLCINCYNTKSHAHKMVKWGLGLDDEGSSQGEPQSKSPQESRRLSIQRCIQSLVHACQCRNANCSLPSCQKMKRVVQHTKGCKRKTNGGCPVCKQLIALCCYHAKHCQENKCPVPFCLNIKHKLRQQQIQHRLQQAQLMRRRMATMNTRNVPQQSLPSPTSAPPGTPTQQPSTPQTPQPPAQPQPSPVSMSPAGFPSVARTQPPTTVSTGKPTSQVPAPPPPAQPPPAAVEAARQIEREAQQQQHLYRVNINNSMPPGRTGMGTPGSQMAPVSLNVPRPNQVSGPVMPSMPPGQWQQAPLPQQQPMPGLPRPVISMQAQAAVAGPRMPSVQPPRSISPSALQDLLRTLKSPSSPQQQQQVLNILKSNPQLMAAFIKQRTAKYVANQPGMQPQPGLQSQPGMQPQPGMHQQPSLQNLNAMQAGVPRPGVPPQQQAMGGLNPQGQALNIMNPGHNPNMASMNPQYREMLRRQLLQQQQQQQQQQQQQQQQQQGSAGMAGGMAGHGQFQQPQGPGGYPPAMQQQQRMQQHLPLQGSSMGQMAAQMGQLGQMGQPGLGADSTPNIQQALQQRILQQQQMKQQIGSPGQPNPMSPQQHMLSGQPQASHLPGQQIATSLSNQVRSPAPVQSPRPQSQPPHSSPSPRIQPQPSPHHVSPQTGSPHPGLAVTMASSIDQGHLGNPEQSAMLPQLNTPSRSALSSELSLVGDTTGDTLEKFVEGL
- Procedure text: CBP degradation, HiBit technology in A549 CBP HiBit cells (24 h)
- Type: cell-based
- Measurement setup: 24 hrs post treatment
Quantity kind: DC50

Study these solved cases before continuing.
Compound: Cc1cc(-c2cc3cccc(-c4cc(C)c5c(c4)n(C)c(=O)n5C)c3cn2)cnc1C(=O)NCC#Cc1ccc2occ(C3CCC(=O)NC3=O)c2c1 (stereo not drawn) [Example A87]
Meas value: > 1 µM
//
Compound: CC(C)c1cc(-c2cccc3cc(-c4ccc(C(=O)NCC#Cc5cnc6c(c5)c(C5CCC(=O)NC5=O)nn6C)nc4)ncc23)cc2c1n(C)c(=O)n2C (stereo not drawn) [Example A221]
Meas value: > 1 µM

Input line: State the measured DC50 (CBP (Homo sapiens, UniProt Q92793)) of CC(C)c1cc(-c2cccc3cc(-c4ccc(C(=O)NCC#Cc5ccc6occ(C78CC(C7)C(=O)NC8=O)c6c5)nc4)ncc23)cc2c1n(C)c(=O)n2C [Example A212]
Output line: > 1 µM

Input line: State the measured DC50 (CBP (Homo sapiens, UniProt Q92793)) of CC(C)c1cc(-c2cccc3cc(-c4ccc(C(=O)NCC#Cc5ccn6ncc(C7CCC(=O)NC7=O)c6c5)nc4)ncc23)cc2c1n(C)c(=O)n2C (stereo not drawn) [Example A172]
Output line: 0.1 to 0.999 µM

Input line: State the measured DC50 (CBP (Homo sapiens, UniProt Q92793)) of CC(C)c1cc(-c2cccc3cc(-c4ccc(C(=O)NCC#Cc5ccc6ncn(C7CCC(=O)NC7=O)c6c5)nc4)ncc23)cc2c1n(C)c(=O)n2C (stereo not drawn) [Example A15]
Output line: > 1 µM

Input line: State the measured DC50 (CBP (Homo sapiens, UniProt Q92793)) of CC(C)c1cc(-c2cn(C)c(=O)c3cc(-c4ccc(C(=O)NCC#Cc5ccc6occ(C7CCC(=O)NC7=O)c6c5)nc4)ncc23)cc2c1n(C)c(=O)n2C (stereo not drawn) [Example A97]
Output line: 0.01 to 0.099 µM

====

- Experimental system: p300 (Homo sapiens)
- Construct: host or cells: A549 P300 HiBit cells
- Procedure text: P300 degradation, HiBit technology in A549 P300 HiBit cells (2 h)
- Type: cell-based
- Measurement setup: A549 P300 HiBit cells, 2 hrs post treatment
Quantity kind: DC50

Compound: Cc1cc2c(N3CCCc4nc(-c5cnc(C(=O)NCC#Cc6cc7c(C8CCC(=O)NC8=O)cccc7o6)cn5)ncc43)cc(C3CCOCC3)cc2n(C)c1=O (centres unmarked)
Experimental system: p300 (Homo sapiens)
DC50: 1 to 9.9 nM

Input line: Give recorded DC50. Cc1cc(-c2ncc(N(C)c3cc(C(C)C)c4c(c3)n(C)c(=O)n4C)cc2F)cnc1C(=O)NCC#Cc1cccc(NC2CCC(=O)NC2=O)c1 (centres unmarked)
Output line: 10 to 99 nM

Input line: Give recorded DC50. CC(C)c1cc(-c2cccc3cc(-c4ccc(C(=O)NCC#Cc5cc(OC6CCC(=O)NC6=O)nn5C)nc4)ncc23)cc2c1n(C)c(=O)n2C (centres unmarked)
Output line: 1 to 9.9 nM

Input line: Give recorded DC50. [2H]C([2H])([2H])N(c1cnc(-c2cnc(C(=O)NCC#Cc3ccc4occ(C5CCC(=O)NC5=O)c4c3)c(C)c2)nc1)c1cc(C(C)C)c2c(c1)n(C)c(=O)n2C (centres unmarked)
Output line: 1 to 9.9 nM

Input line: Give recorded DC50. CCc1cc(N2CCOc3cc(-c4ccc(C(=O)NCC#Cc5ccc6occ(C7CCC(=O)NC7=O)c6c5)nc4)c(F)cc32)c2cc(C)c(=O)n(C)c2c1 (centres unmarked)
Output line: 1 to 9.9 nM

====

- Experimental system: CBP (Homo sapiens, UniProt Q92793)
- Construct: host or cells: A549 CBP HiBit cells
- Procedure text: CBP degradation, HiBit technology in A549 CBP HiBit cells (24 h)
- Type: cell-based
- Measurement setup: 24 hrs post treatment
Recorded measurements of DC50, one per entry

Study these solved cases before continuing.
Molecule: CC(C)c1cc(N2CCN(C)c3cc(-c4ccc(C(=O)NCC#Cc5cccc(NC6CCC(=O)NC6=O)c5)nc4)ncc32)cc2c1n(C)c(=O)n2C (centres unmarked)
Quantity kind: DC50
Meas value: 1 to 9.9 nM

Molecule: CC(C)c1cc(N2CCCc3nc(-c4ccc(C(=O)NCC#Cc5cc6c(C7CCC(=O)NC7=O)cccc6o5)nc4)ncc32)cc2c1n(C)c(=O)n2C (centres unmarked)
Quantity kind: DC50
Meas value: 100 to 999 nM

Molecule: Cn1c(=O)n(C)c2c(N3CCC(C)(O)CC3)nc(-c3cccc4cc(-c5ccc(C(=O)NCC#Cc6cc7c(C8CCC(=O)NC8=O)cccc7o6)nc5)ncc34)cc21 (centres unmarked)
Quantity kind: DC50
Meas value: > 1000 nM

Molecule: Cc1cc2c(N3CCCc4nc(-c5ccc(C(=O)NCC#Cc6cc7c(C8CCC(=O)NC8=O)nccc7o6)nc5)ncc43)nc(N3CCC3)cc2n(C)c1=O (centres unmarked)
Quantity kind: DC50
Meas value: 10 to 99 nM

Molecule: CCn1c(=O)n(C)c2c(N3CCOCC3)nc(-c3cccc4cc(-c5ccc(C(=O)NCC#Cc6ccc7occ(C8CCC(=O)NC8=O)c7c6)nc5)ncc34)cc21 (centres unmarked)
Quantity kind: DC50
Meas value: > 1000 nM

Input line: Give recorded DC50. Cc1cc2c(N3CCCc4nc(-c5ccc(C(=O)NCC#Cc6ccc7c(c6)c(C6CCC(=O)NC6=O)nn7C)nc5)ncc43)cc(C3CCOCC3)cc2n(C)c1=O (centres unmarked)
Output line: 1 to 9.9 nM

Input line: Give recorded DC50. Cc1cc2c(N3CCOc4cc(-c5ccc(C(=O)NCC#Cc6ccc7occ(C8CCC(=O)NC8=O)c7c6)nc5)c(F)cc43)cc(N3CC(C)(O)C3)cc2n(C)c1=O (centres unmarked)
Output line: 10 to 99 nM

Input line: Give recorded DC50. Cc1cc(-c2ncc3c(n2)CCCN3c2cc(C3CCOCC3)cc3c2cc(C)c(=O)n3C)cnc1C(=O)NCC#Cc1ccc2occ(C3CCC(=O)NC3=O)c2c1 (centres unmarked)
Output line: > 1000 nM

====

- Experimental system: CBP (Homo sapiens)
- Construct: host or cells: A549 CBP HiBit cells
- Procedure text: CBP degradation, HiBit technology in A549 CBP HiBit cells (24 h)
- Assay type: cell-based
- Measurement setup: 24 hrs post treatment
Quantity kind: Dmax

Molecule: Cn1c(=O)n(C)c2c(N3CCOCC3)nc(-c3cccc4cc(-c5ccc(C(=O)NCC#Cc6cc7c(C8CCC(=O)NC8=O)cccc7o6)nc5)ncc34)cc21 (stereo not shown) [Example A223]
Dmax: < 20%
//
Molecule: Cn1c(=O)n(C)c2c(N3CC(O)C3)nc(-c3cccc4cc(-c5ccc(C(=O)NCC#Cc6ccc7occ(C8CCC(=O)NC8=O)c7c6)nc5)ncc34)cc21 (stereo not shown) [Example A115]
Dmax: < 20%
//
Molecule: CC(C)c1cc(N2CCCc3nc(-c4ccc(C(=O)NCC#Cc5ccc6occ(C7CCC(=O)NC7=O)c6c5)nc4)ncc32)cc2c1n(C)c(=O)n2C (stereo not shown) [Example A133]
Dmax: < 20%

Input line: Give recorded Dmax. CC(C)c1cc(-c2cccc3cc(-c4ccc(C(=O)NCC#Cc5ccc6c(c5)n(C5CCC(=O)NC5=O)c(=O)n6C)nc4)ncc23)cc2c1n(C)c(=O)n2C (stereo not shown) [Example A18]
Output line: 60 to 79%

Input line: Give recorded Dmax. Cc1cc2c(N3CCCc4nc(-c5ccc(C(=O)NCC#Cc6cc7c(C8CCC(=O)NC8=O)nccc7s6)nc5)ncc43)cc(C3CCOCC3)cc2n(C)c1=O (stereo not shown) [Example B81]
Output line: 40 to 59%

Input line: Give recorded Dmax. Cc1cc(-c2ncc3c(n2)OCCN3c2ccc3c(c2)n(C)c(=O)n3C)cnc1C(=O)NCC#Cc1cc2c(C3CCC(=O)NC3=O)ccc(F)c2o1 (stereo not shown) [Example A203]
Output line: < 20%

Input line: Give recorded Dmax. Cc1cc(-c2cccc3cc(-c4ccc(C(=O)NCC#Cc5ccc6occ(C7CCC(=O)NC7=O)c6c5)nc4)ncc23)cc2c1n(C)c(=O)n2C (stereo not shown) [Example A96]
Output line: < 20%

====

Recorded measurements of DC50, one per entry
- Experimental system: p300 (Homo sapiens, UniProt Q09472)
- Construct: host or cells: A549 P300 HiBit cells
- Sequence (Q09472 whole entry): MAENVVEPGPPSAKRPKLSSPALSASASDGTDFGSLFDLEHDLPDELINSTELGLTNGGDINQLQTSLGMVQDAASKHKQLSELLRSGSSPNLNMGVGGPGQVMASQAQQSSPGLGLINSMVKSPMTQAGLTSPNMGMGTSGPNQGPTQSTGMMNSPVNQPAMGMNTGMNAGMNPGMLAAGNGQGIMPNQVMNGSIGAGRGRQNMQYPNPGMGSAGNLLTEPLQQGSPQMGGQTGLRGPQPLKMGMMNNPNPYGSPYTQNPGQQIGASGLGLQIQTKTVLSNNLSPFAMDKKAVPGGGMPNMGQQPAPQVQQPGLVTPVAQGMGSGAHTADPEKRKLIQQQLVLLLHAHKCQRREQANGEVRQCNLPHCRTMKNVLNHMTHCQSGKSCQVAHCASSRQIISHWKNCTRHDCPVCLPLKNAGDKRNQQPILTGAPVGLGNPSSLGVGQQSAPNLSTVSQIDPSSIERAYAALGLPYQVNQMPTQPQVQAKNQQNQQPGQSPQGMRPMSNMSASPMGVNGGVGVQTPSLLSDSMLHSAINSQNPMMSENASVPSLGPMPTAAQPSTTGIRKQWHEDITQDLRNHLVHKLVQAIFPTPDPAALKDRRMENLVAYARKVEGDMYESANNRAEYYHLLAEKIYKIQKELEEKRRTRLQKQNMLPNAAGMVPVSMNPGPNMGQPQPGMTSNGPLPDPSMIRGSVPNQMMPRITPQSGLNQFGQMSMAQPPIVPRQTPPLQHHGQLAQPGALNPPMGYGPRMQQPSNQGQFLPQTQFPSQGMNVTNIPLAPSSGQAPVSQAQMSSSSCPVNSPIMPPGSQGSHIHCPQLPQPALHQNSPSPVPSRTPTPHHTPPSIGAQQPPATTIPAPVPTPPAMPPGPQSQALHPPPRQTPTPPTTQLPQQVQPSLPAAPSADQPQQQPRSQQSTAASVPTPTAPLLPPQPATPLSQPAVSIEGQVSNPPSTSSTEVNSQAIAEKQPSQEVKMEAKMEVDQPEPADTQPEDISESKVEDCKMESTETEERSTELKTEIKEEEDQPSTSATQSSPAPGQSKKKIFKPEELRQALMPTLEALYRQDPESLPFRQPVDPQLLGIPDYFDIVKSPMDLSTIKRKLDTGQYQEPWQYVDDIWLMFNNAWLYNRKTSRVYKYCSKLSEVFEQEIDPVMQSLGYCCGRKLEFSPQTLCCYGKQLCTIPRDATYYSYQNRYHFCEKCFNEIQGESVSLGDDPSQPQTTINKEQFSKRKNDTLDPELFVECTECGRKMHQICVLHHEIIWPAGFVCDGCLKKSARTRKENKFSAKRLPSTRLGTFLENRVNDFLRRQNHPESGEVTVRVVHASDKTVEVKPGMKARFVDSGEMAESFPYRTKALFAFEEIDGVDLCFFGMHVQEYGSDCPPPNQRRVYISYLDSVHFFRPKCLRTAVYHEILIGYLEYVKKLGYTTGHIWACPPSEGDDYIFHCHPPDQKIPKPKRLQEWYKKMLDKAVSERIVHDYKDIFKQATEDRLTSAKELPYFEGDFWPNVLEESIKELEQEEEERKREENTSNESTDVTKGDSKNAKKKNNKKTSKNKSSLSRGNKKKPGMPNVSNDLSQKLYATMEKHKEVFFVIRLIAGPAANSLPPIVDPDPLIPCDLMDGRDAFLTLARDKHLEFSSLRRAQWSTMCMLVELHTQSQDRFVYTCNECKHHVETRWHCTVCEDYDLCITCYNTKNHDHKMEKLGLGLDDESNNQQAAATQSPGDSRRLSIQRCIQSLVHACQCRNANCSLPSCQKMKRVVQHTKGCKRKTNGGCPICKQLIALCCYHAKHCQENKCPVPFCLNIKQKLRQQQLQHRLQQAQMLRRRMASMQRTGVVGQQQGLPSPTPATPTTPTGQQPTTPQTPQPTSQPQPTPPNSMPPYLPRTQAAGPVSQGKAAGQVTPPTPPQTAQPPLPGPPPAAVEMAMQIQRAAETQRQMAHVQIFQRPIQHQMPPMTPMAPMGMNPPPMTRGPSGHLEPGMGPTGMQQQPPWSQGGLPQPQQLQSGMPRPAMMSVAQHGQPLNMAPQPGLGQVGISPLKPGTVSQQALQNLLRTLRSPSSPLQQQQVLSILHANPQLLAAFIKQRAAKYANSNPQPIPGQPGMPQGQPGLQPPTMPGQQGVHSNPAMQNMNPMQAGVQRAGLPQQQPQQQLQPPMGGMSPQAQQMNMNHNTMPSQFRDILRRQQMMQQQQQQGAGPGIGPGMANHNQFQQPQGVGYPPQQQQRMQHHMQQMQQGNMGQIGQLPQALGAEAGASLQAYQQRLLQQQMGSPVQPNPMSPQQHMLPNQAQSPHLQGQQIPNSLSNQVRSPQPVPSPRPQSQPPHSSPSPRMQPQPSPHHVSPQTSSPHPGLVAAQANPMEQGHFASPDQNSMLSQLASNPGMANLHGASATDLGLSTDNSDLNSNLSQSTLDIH
- Procedure text: P300 degradation, HiBit technology in A549 P300 HiBit cells (2 h)
- Format: cell-based
- Measurement setup: A549 P300 HiBit cells, 2 hrs post treatment

Study these solved cases before continuing.
Molecule: CC(C)c1cc(-c2cccc3cc(-c4ccc(C(=O)NCC#Cc5ccc6oc(F)c(C7CCC(=O)NC7=O)c6c5)nc4)ncc23)cc2c1n(C)c(=O)n2C (stereo not shown)
DC50: 1 to 9.9 nM
--
Molecule: Cc1cc(-c2ncc(N(C)c3cc4c(c(C(C)C)n3)n(C)c(=O)n4C)cn2)cnc1C(=O)NCC#Cc1ccc2occ(C3CCC(=O)NC3=O)c2c1 (stereo not shown)
DC50: > 1000 nM
--
Molecule: Cn1c(=O)n(C)c2cc(-c3cccc4cc(-c5ccc(C(=O)NCC#Cc6cc7c(C8CCC(=O)NC8=O)cccc7o6)nc5)ncc34)ccc21 (stereo not shown)
DC50: < 1 nM
--
Molecule: Cc1cc(-c2ccc(N(C)c3cc(C(C)C)c4c(c3)n(C)c(=O)n4C)cc2C#N)cnc1C(=O)NCC#Cc1cccc(NC2CCC(=O)NC2=O)c1 (stereo not shown)
DC50: 10 to 99 nM
--
Molecule: Cc1cc(-n2ccc(N(C)c3cc(C(C)C)c4c(c3)n(C)c(=O)n4C)cc2=O)cnc1C(=O)NCC#Cc1cccc(NC2CCC(=O)NC2=O)c1 (stereo not shown)
DC50: 1 to 9.9 nM

Field: next molecule
Input line: State the measured DC50 (p300 (Homo sapiens, UniProt Q09472)) of CCc1cc(-c2cccc3cc(-c4ccc(C(=O)NCC#Cc5ccc6cnn(C7CCC(=O)NC7=O)c6c5)nc4)ncc23)c2c(n1)N(C)C(=O)N(C)C2 (stereo not shown)
Output line: 1 to 9.9 nM
